These entries and their values trace back to paper PMC9599700.

Substrate: S=C=NCCc1ccccc1
Experiment: purified protein
Format: biochemical, Synechocystis sp. PCC 6803
Details: fixed saturating GSH, 100 mM phosphate pH 6.5, 25 °C
endpoint: kcat/Km (M⁻¹ s⁻¹)
One number for each entry, in M⁻¹ s⁻¹.

Previously resolved entries follow.
protein	uom	numeric.readout
SynGSTC1 (Sll0067) (Synechocystis sp. PCC 6803 substr. Kazusa) (protein, Ni-NTA and size exclusion; about 180 residues; two-fold dimer in crystal) MIKLYGAPQSRASIIQWYLEELSLPYEFVNVNLKEGEHRQAPYLAINPFGKVPAIADGNFHLWESGAILLYLAEKASTIPADAQARALVNQWILFANSTLANGLFIEAVREKEMPRLLQSLEKILGRSPFILGEKFSVVDVAVGSILAYVPIMLKLNFDDYPAVAAYVQGLVQRPAFQASIGAR	M⁻¹ s⁻¹	373000
SynGSTC1 (Sll0067) (Synechocystis sp. PCC 6803 substr. Kazusa; R11A) (protein, Ni-NTA and size exclusion; about 180 residues; two-fold dimer in crystal) MIKLYGAPQSAASIIQWYLEELSLPYEFVNVNLKEGEHRQAPYLAINPFGKVPAIADGNFHLWESGAILLYLAEKASTIPADAQARALVNQWILFANSTLANGLFIEAVREKEMPRLLQSLEKILGRSPFILGEKFSVVDVAVGSILAYVPIMLKLNFDDYPAVAAYVQGLVQRPAFQASIGAR	M⁻¹ s⁻¹	1530
SynGSTC1 (Sll0067) (Synechocystis sp. PCC 6803 substr. Kazusa; S10T) (protein, Ni-NTA and size exclusion; about 180 residues; two-fold dimer in crystal) MIKLYGAPQTRASIIQWYLEELSLPYEFVNVNLKEGEHRQAPYLAINPFGKVPAIADGNFHLWESGAILLYLAEKASTIPADAQARALVNQWILFANSTLANGLFIEAVREKEMPRLLQSLEKILGRSPFILGEKFSVVDVAVGSILAYVPIMLKLNFDDYPAVAAYVQGLVQRPAFQASIGAR	M⁻¹ s⁻¹	214000
SynGSTC1 (Sll0067) (Synechocystis sp. PCC 6803 substr. Kazusa; S10C) (protein, Ni-NTA and size exclusion; about 180 residues; two-fold dimer in crystal) MIKLYGAPQCRASIIQWYLEELSLPYEFVNVNLKEGEHRQAPYLAINPFGKVPAIADGNFHLWESGAILLYLAEKASTIPADAQARALVNQWILFANSTLANGLFIEAVREKEMPRLLQSLEKILGRSPFILGEKFSVVDVAVGSILAYVPIMLKLNFDDYPAVAAYVQGLVQRPAFQASIGAR	M⁻¹ s⁻¹	36000

We next turn to a different protein, shown below.
Look up and state reported kcat/Km for SynGSTC1 (Sll0067) (Synechocystis sp. PCC 6803 substr. Kazusa; S10A) (protein, Ni-NTA and size exclusion; about 180 residues; two-fold dimer in crystal) MIKLYGAPQARASIIQWYLEELSLPYEFVNVNLKEGEHRQAPYLAINPFGKVPAIADGNFHLWESGAILLYLAEKASTIPADAQARALVNQWILFANSTLANGLFIEAVREKEMPRLLQSLEKILGRSPFILGEKFSVVDVAVGSILAYVPIMLKLNFDDYPAVAAYVQGLVQRPAFQASIGAR
28900
